Cited source: the supplement of paper PMC13380429

tested on: Caco-2; assay: cell viability relative to DMSO; higher = less toxic; conditions: 72 h; 1000 nM
Each entry below carries its recorded cell viability.
Answer with a number only, understood to be in %.

Sample answers from the record:
Cc1cccc(/C=N/Nc2cc(N3CCOCC3)n3nc(-c4ccncc4)cc3n2)c1 [APY0201]; 97
O=C(CCc1ccc(O)cc1)c1c(O)cc(O)cc1O[C@@H]1O[C@H](CO)[C@@H](O)[C@H](O)[C@H]1O [phlorizin]; 97.7
c1ccc(CNc2nc(NCc3ccccc3)c3ccccc3n2)cc1 [DBeQ]; 100

[Q] Quick check: cell viability of CN(C)CCCN1c2ccccc2Sc2ccc(Cl)cc21 [chlorpromazine] ?
[A] 105

[Q] What measured cell viability goes with O=C(Nc1cccc(Br)c1)c1cccc(S(=O)(=O)N2CCCCCC2)c1 [AK-7] ?
[A] 92.9
